- measurement notes: In vivo pharmacokinetic studies in rats
- Set-up: species or system SD rats
- condition label: SD, rat, plasma, iv, 2 mg/kg, rats, single 2 mg/kg IV dose, Mean of 3 animals
# clearance per entry
Answer in mL/min/kg, number only, no unit symbol.

CC[C@@H](O)c1csc(C(=O)c2c[nH]c3cc(F)ccc23)n1    5.38

Next compound, clearance to be filled in.
Report measured clearance; entry is `CC[C@H](O)c1csc(C(=O)c2c[nH]c3cc(F)ccc23)n1`
1.55

====

- system: AhR (Homo sapiens, UniProt P35869)
- Construct: host or cells: human HepG2 cells
- Sequence (P35869 11-848): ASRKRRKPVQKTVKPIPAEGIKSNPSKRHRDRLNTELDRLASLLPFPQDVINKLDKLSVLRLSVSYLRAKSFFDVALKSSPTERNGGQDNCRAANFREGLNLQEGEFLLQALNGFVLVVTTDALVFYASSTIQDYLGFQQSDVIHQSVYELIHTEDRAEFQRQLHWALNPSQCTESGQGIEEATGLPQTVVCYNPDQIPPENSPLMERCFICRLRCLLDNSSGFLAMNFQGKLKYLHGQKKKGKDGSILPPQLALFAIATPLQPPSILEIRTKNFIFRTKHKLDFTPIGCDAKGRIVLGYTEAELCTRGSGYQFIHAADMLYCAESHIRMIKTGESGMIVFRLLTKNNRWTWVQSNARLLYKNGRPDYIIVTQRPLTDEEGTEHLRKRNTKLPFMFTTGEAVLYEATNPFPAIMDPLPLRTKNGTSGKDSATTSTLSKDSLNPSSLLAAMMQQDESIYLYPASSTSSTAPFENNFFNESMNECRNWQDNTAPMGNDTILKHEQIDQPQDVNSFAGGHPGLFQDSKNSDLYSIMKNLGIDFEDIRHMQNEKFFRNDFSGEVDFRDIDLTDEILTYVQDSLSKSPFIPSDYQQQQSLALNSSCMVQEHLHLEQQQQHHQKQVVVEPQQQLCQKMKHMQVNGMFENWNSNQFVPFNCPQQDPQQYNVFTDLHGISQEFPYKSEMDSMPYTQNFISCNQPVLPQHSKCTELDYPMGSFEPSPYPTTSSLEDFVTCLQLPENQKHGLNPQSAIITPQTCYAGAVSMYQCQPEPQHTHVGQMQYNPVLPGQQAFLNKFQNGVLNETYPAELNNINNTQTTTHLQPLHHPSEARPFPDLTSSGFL
- measurement notes: EROD assay (7-ethoxy-resorufin-O-deethylase; CYP1A1 activity) in human HepG2 cells
- Assay type: cell-based
- condition label: human HepG2 cells, Plate 1
measure name: EC50 (µM)
Answer in µM, number only, no unit symbol.

Would you please look over these solved cases?
CCC(O)(CC)c1csc(C(=O)c2c[nH]c3cc(F)ccc23)n1    0.241
CC[C@H](O)c1csc(C(=O)c2c[nH]c3cc(F)ccc23)n1    0.104
CC[C@@H](N)c1csc(C(=O)c2c[nH]c3cc(F)ccc23)n1    0.0556
O=C(c1nc([C@@H](O)C(F)(F)F)cs1)c1c[nH]c2cc(F)ccc12    0.0359
CC[C@H](O)c1csc(C(=O)c2c[nH]c3ccc(F)cc23)n1    0.409

Report measured EC50; entry is `O=C(c1nc([C@H](O)C(F)(F)F)cs1)c1c[nH]c2cc(F)ccc12`
0.0219

Report measured EC50; entry is `CC[C@H](N)c1csc(C(=O)c2c[nH]c3cc(F)ccc23)n1`
0.0058

Report measured EC50; entry is `CC[C@@H](O)c1nc(C(=O)c2c[nH]c3cc(F)ccc23)cs1`
0.582

Report measured EC50; entry is COC(=O)c1csc(C(=O)c2c[nH]c3ccccc23)n1 [ARI-001, ITE, reference compound]
4.44

Report measured EC50; entry is `CC(C)(O)c1csc(C(=O)c2c[nH]c3ccccc23)n1`
0.119

Report measured EC50; entry is `CC[C@@H](O)c1csc(C(=O)c2c[nH]c3ccc(F)cc23)n1`
0.289

Report measured EC50; entry is `CC[C@H](O)c1nc(C(=O)c2c[nH]c3cc(F)ccc23)cs1`
0.476

Provenance of the data: patent US11390621B2
